// provenance: patent US10982284B2

System: OV90
experiment-description: CellTiter-Blue cell viability assay
Format: cell-based, human
condition-description: OV90 ovarian cancer cell line; 72 hours; 50% reduction in growth/viability
assay-endpoint: IC50 (µM)
Express your answer in µM, writing the number without its unit.

Exam item: Need IC50 of N.N.O=C([O-])C1(C(=O)[O-])CCC1.[Pt+2] [Carboplatin, carboplatin] , thanks.
Marked response: 213

###

Tested on: SK-OV-4
experiment-description: CellTiter-Blue cell viability assay
Assay type: cell-based, human
condition-description: SK-OV-4 ovarian cancer cell line; 72 hours; 50% reduction in growth/viability
Please respond with reported IC50 for every item in the list.
Express your answer in µM, writing the number without its unit.

Exam item: Requested read-out IC50, target or system SK-OV-4, entry N.N.O=C([O-])C1(C(=O)[O-])CCC1.[Pt+2] [Carboplatin, carboplatin]
Marked response: 23

Exam item: Requested read-out IC50, target or system SK-OV-4, entry N.N.[Cl][Pt][Cl] [Cisplatin, cisplatin]
Marked response: 13
